Kindly state 8OG:A repair function score for each of the entries shown.
B1: library; numbered along this chain (parent)
chain: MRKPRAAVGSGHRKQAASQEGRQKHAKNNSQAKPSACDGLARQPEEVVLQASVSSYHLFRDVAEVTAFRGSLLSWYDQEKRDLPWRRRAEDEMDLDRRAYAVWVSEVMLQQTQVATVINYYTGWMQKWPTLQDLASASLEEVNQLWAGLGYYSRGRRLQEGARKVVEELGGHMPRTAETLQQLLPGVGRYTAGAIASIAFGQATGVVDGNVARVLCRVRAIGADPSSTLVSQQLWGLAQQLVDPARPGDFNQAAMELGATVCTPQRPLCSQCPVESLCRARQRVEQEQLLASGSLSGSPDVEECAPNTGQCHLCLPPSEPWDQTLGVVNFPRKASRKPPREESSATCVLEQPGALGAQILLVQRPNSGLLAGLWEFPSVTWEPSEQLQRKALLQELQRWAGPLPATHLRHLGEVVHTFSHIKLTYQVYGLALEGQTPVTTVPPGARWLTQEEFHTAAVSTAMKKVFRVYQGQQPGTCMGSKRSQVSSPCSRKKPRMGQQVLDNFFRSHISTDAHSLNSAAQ

- Variants of: B1
- Measurement notes: 8OG:A repair function score (normalized; synonymous = 0, nonsense = -1) (normalized log-likelihood score); higher = more repair activity (WT-like);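 further: cells sorted at 72 h after reporter transfection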
- Condition context: with 8OG:A DNA repair reporter (GFP) in HEK-293 MUTYH KO cells

Worked cases, 8OG:A repair function score given:
- Mutant name: "P185Q"
  Measured property: "8OG:A repair function score"
  Result: -0.197
- Mutant name: "S378V"
  Measured property: "8OG:A repair function score"
  Result: -0.2

Value lookup for 8OG:A repair function score; key = `C347T`
-0.206
